Taken from patent US20230322924A1.

- assay_system: T1, Human CD33 full length, expressed on HEK293F cells (human, UniProt P20138 18-364)
- T1 construct: HEK293F cells transduced with lentivirus containing full length human CD33; also called huCD33
- T1 sequence (P20138 18-364 limits assumed): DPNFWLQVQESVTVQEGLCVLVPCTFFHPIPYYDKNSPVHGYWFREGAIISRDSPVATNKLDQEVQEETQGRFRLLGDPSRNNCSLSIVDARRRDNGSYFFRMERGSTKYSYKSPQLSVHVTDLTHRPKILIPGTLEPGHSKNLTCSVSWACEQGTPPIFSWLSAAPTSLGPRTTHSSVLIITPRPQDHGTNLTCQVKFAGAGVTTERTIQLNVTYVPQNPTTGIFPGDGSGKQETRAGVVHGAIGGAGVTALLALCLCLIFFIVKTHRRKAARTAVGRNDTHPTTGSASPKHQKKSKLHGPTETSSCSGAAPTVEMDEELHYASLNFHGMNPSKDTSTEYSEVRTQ
- assay_protocol: flow cytometry, HEK293F cells expressing human CD33
measurement_name: MFI at 0 nM mAb (background) (MFI)
I only need the number, in MFI, no unit after it.

Lookup result for C33B54 (antibody, IgG1, V domains shown, huIgG1 F405L; also called C33F59; C33H44/C33L10) VH: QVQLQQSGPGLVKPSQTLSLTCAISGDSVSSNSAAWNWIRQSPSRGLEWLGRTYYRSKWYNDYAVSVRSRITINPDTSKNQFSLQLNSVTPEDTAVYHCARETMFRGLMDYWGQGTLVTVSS VL: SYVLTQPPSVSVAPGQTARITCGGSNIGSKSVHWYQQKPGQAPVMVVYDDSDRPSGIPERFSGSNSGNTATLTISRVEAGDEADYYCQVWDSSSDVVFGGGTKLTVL ; measured MFI at 0 nM mAb (background): 61.3

MFI at 0 nM mAb (background) measured on C33B52 (antibody, IgG1, V domains shown, huIgG1 F405L; also called C33F57; C33H42/C33L8) VH: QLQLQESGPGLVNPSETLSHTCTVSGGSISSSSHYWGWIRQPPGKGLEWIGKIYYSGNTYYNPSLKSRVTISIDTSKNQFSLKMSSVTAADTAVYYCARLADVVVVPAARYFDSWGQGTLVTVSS VL: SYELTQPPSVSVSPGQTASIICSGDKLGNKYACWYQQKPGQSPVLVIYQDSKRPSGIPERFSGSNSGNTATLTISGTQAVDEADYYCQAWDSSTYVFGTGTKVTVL = 82.5
